- Test system: HLA-A24
- method.notes: REVEAL binding assay
- condition: score as percentage of the signal generated by the positive control peptide
Decision: REVEAL binding score, HLA-type A24 beneath 0.9% gives met; REVEAL binding score, HLA-type A24 meeting or exceeding 0.9% gives not met.

Q: Consider DLMGYIPLV . Does its REVEAL binding score, HLA-type A24 lie strictly below 0.9%?
Ans: not met

Q: Consider RVIETLTSG . Does its REVEAL binding score, HLA-type A24 lie strictly below 0.9%?
Ans: not met

Q: Consider VIRVIAHGL . Does its REVEAL binding score, HLA-type A24 lie strictly below 0.9%?
Ans: met

====

Known REVEAL binding score, HLA-type B7 of a selection of substances
- measurement.target: HLA-B7 (Homo sapiens)
- Sequence (P61769 21-119): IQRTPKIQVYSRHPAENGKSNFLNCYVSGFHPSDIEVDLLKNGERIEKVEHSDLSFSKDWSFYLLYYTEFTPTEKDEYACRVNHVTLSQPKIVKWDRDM
- Sequence (P01889 25-299): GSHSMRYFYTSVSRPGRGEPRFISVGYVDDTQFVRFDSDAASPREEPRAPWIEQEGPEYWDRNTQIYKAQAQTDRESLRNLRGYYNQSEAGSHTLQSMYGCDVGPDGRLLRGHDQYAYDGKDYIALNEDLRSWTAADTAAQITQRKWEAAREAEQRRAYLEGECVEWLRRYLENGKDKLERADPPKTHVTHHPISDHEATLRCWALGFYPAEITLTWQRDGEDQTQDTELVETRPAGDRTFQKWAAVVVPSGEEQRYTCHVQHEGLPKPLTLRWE
- method.notes: REVEAL binding assay
- condition: score as percentage of the signal generated by the positive control peptide
Report as a plain number; the unit % is understood.

Q: Give the reported REVEAL binding score, HLA-type B7 for GITFSIYLI (system: HLA-B7 (Homo sapiens)).
Ans: 2.07

Q: Give the reported REVEAL binding score, HLA-type B7 for NLGKVIDTL (system: HLA-B7 (Homo sapiens)).
Ans: 2.64

New cases:
Q: Give the reported REVEAL binding score, HLA-type B7 for YATGNLPGC (system: HLA-B7 (Homo sapiens)).
Ans: 0.76

Q: Give the reported REVEAL binding score, HLA-type B7 for GGQIIGGNY (system: HLA-B7 (Homo sapiens)).
Ans: 1.09

Q: Give the reported REVEAL binding score, HLA-type B7 for RALAHGVRV (system: HLA-B7 (Homo sapiens)).
Ans: 2.55

Q: Give the reported REVEAL binding score, HLA-type B7 for IGGNYLIPR (system: HLA-B7 (Homo sapiens)).
Ans: 20.49

Q: Give the reported REVEAL binding score, HLA-type B7 for YVTGNIPGS (system: HLA-B7 (Homo sapiens)).
Ans: 2.70

Q: Give the reported REVEAL binding score, HLA-type B7 for VTGNIPGST (system: HLA-B7 (Homo sapiens)).
Ans: 2.24

====

- Test system: HLA-B14
- method.notes: REVEAL binding assay
- condition: score as percentage of the signal generated by the positive control peptide
Where no end group is shown, it is not given here. [ ]: non-standard residue; d: D form. Cit = NC(=O)NCCC[C@H](N)C(=O)O
quantity: REVEAL binding score, HLA-type B14 (%)
Report as a plain number; the unit % is understood.

// known answers, use as guide
Q: Requested read-out: REVEAL binding score, HLA-type B14. Entry: TFSIYLIVS
Ans: 0.37

Q: Requested read-out: REVEAL binding score, HLA-type B14. Entry: ARALAHGVR
Ans: 1.10

Consider now this further substance.
Q: Requested read-out: REVEAL binding score, HLA-type B14. Entry: [Cit]IGVRAT[Cit]R
Ans: 0.17

====

- Test system: HLA-B15
- method.notes: REVEAL binding assay
- condition: score as percentage of the signal generated by the positive control peptide
quantity: REVEAL binding score, HLA-type B15 (%)
Report as a plain number; the unit % is understood.

Q: Give the reported REVEAL binding score, HLA-type B15 for YIPLVGAPL (system: HLA-B15).
Ans: 54.57

Consider now this further substance.
Q: Give the reported REVEAL binding score, HLA-type B15 for NIPGSTYSL (system: HLA-B15).
Ans: 4.46
